target: Broad substrate specificity ATP-binding cassette transporter ABCG2 (Homo sapiens); assay: Inhibition of BCRP (unknown origin) expressed in MDCK2 cells assessed as pheophorbide A accumulation preincubated for 20 mins measured after 120 mins by flow cytometry
Sequence (Q9UNQ0 whole entry): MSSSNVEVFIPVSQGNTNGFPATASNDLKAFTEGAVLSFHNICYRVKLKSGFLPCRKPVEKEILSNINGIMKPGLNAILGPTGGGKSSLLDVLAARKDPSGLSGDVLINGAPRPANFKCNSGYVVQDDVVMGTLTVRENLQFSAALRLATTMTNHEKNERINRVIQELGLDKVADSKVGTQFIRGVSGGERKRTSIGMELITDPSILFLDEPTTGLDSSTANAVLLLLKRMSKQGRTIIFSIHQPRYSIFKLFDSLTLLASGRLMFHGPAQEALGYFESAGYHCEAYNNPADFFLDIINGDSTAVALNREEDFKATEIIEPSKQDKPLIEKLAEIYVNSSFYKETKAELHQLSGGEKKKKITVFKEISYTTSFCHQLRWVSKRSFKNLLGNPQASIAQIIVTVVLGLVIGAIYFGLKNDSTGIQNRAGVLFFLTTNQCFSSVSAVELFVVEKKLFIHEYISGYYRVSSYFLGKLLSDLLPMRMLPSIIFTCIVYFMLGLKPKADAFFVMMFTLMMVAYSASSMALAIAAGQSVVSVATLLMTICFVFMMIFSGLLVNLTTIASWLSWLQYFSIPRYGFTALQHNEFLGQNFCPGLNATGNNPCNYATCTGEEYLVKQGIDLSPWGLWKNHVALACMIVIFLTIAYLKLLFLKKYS
# note: exactly 6 µM is not below, so it is false (0); use true (1) for IC50 strictly under it

• N#Cc1c2n(c3c(N4CCN(C(c5ccccc5)c5ccccc5)CC4)ncnc13)CCCCC2 = false (0)
• CN1CCN(c2ncnc3c(C#N)c4n(c23)CCCC4)CC1 = true (1)
• N#Cc1c2n(c3c(N4CCN(Cc5ccccc5)CC4)ncnc13)CCCC2 = false (0)
• N#Cc1c2n(c3c(N4CCN(CCc5ccccc5)CC4)ncnc13)CCCCC2 = false (0)

* * *

assay: Cytotoxicity against human H69AR cells overexpressing MRP1 assessed as reduction in cell viability at 10 uM after 72 hrs by MTT assay; assay type: cell-based; conditions: H69AR cells overexpressing MRP1, read-out: INH
reported.property: cytotoxicity at 72 h, 10 µM

* N#Cc1cn(-c2ccccc2)c2c(N3CCN(CCc4ccccc4)CC3)ncnc12 | 40%

* * *

biological target: Multidrug resistance-associated protein 1 (Homo sapiens, UniProt P33527); assay: Inhibition of MRP1 in human H69AR cells incubated for 20 mins measured every 60 seconds by calcein-AM accumulation assay
Sequence (P33527 whole entry): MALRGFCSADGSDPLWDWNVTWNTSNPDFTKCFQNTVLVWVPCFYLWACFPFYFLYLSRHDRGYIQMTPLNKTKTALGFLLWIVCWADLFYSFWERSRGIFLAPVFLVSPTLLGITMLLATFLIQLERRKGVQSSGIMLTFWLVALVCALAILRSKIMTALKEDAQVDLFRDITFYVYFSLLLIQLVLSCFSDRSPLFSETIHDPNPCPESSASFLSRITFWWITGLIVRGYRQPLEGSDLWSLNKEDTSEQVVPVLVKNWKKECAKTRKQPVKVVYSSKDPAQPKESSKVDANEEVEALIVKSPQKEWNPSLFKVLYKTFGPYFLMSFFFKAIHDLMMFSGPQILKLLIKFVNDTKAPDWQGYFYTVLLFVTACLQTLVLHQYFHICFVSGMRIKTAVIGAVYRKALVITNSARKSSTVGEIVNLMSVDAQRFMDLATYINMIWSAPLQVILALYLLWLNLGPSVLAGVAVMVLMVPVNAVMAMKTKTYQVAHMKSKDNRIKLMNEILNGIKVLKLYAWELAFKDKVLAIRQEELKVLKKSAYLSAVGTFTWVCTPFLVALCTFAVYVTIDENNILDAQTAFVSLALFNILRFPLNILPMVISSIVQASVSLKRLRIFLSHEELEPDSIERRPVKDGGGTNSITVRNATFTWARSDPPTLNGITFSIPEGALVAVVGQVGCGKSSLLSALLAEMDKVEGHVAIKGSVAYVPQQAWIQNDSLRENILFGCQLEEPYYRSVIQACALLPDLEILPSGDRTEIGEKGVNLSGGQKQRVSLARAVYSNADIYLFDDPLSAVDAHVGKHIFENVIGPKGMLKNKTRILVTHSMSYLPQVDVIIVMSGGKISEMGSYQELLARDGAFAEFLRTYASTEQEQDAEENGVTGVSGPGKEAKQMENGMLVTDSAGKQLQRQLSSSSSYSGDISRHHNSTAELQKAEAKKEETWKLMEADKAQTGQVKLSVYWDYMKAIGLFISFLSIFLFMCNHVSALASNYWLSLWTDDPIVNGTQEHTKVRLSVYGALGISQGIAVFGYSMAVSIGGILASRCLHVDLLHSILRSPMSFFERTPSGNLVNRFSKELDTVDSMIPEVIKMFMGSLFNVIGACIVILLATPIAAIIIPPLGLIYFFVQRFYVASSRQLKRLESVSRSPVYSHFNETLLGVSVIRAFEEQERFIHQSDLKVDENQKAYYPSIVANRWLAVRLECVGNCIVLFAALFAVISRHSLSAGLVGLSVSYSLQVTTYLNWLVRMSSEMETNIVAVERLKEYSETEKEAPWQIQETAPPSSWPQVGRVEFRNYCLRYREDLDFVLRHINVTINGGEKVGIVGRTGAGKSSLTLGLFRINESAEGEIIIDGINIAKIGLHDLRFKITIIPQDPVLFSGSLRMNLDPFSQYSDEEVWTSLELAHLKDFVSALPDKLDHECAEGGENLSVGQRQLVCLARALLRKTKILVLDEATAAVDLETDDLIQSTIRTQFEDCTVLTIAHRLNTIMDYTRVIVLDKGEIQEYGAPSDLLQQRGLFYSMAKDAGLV
reported.property: IC50

* Cn1cc(C#N)c2ncnc(N3CCN(CCc4ccccc4)CC3)c21 | 714 nM
* N#Cc1c2n(c3c(Nc4ccccc4)ncnc13)CCCC2 | 14200 nM
* N#Cc1c2n(c3c(NCCc4ccccc4)ncnc13)CCCC2 | 8370 nM
* N#Cc1c2n(c3c(N4CCN(CCc5ccccc5)CC4)ncnc13)CCCC2 | 370 nM
* N#Cc1cn(CCCc2ccccc2)c2c(N3CCN(Cc4ccccc4)CC3)ncnc12 | 3150 nM
* N#Cc1c2n(c3c(N4CCN(Cc5ccccc5)CC4)ncnc13)CCCC2 | 671 nM
* N#Cc1c2n(c3c(N4CCN(C(c5ccccc5)c5ccccc5)CC4)ncnc13)CCCC2 | 1620 nM
* N#Cc1cn(CCc2ccccc2)c2c(N3CCN(CCc4ccccc4)CC3)ncnc12 | 1020 nM
* N#Cc1c2n(c3c(NCCCc4ccccc4)ncnc13)CCCC2 | 2500 nM
* N#Cc1cn(-c2ccccc2)c2c(N3CCN(Cc4ccccc4)CC3)ncnc12 | 1220 nM
* N#Cc1cn(-c2ccccc2)c2c(N3CCN(CCc4ccccc4)CC3)ncnc12 | 750 nM
* N#Cc1c2n(c3c(N4CCN(c5ccccc5)CC4)ncnc13)CCCC2 | 2560 nM

* * *

target: Multidrug resistance-associated protein 1 (Homo sapiens, UniProt P33527); assay: Inhibition of MRP1 in human H69AR cells incubated for 20 mins measured every 60 seconds by calcein-AM accumulation assay
pIC50: −log10 of the molar value.
reported.property: pIC50

• N#Cc1cn(CCCc2ccccc2)c2c(N3CCN(CCc4ccccc4)CC3)ncnc12 = 6.02
• N#Cc1cn(Cc2ccccc2)c2c(N3CCN(CCc4ccccc4)CC3)ncnc12 = 6.00
• CCn1cc(C#N)c2ncnc(N3CCN(CCc4ccccc4)CC3)c21 = 5.97
• N#Cc1cn(C2CC2)c2c(N3CCN(CCc4ccccc4)CC3)ncnc12 = 6.61
• CCCn1cc(C#N)c2ncnc(N3CCN(CCc4ccccc4)CC3)c21 = 6.27
• N#Cc1cn(CCc2ccccc2)c2c(N3CCN(Cc4ccccc4)CC3)ncnc12 = 6.04
• CC(C)n1cc(C#N)c2ncnc(N3CCN(CCc4ccccc4)CC3)c21 = 6.09
• N#Cc1c2n(c3c(NCc4ccccc4)ncnc13)CCCC2 = 4.85
• N#Cc1c2n(c3c(N4CCNCC4)ncnc13)CCCC2 = 4.56
• CN1CCN(c2ncnc3c(C#N)c4n(c23)CCCC4)CC1 = 5.30
• N#Cc1cn(Cc2ccccc2)c2c(N3CCN(Cc4ccccc4)CC3)ncnc12 = 5.56
